biological target: Estrogen receptor (Bos taurus) (UniProt Q9XSB5+P49884); assay: Binding affinity against Estrogen receptor in calf-uterine cytosol relative to 17-beta-estradiol using [3H]estradiol.; format: protein assay
Property Label: RBA

# Test Smiles, Study Target, Property Label, Obs Value
records = [
    ("CC/C(=C(\\c1ccc(OC(C)=O)cc1)c1cccc(OC(C)=O)c1)c1ccc(OC(C)=O)cc1", "Estrogen receptor (Bos taurus) (UniProt Q9XSB5+P49884)", "RBA", "3%"),
    ("CC/C(=C(\\c1ccc(OC(C)=O)cc1)c1cccc(OC(C)=O)c1)c1cccc(OC(C)=O)c1", "Estrogen receptor (Bos taurus) (UniProt Q9XSB5+P49884)", "RBA", "2.7%"),
    ("CC/C(=C(/c1ccccc1)c1cccc(OC(C)=O)c1)c1ccccc1", "Estrogen receptor (Bos taurus) (UniProt Q9XSB5+P49884)", "RBA", "0.7%"),
    ("CCC(=C(c1ccccc1)c1ccccc1)c1ccc(OC(C)=O)cc1", "Estrogen receptor (Bos taurus) (UniProt Q9XSB5+P49884)", "RBA", "3.8%"),
    ("CC/C(=C(/c1ccccc1)c1ccc(OC(C)=O)cc1)c1ccc(OC(C)=O)cc1", "Estrogen receptor (Bos taurus) (UniProt Q9XSB5+P49884)", "RBA", "5.9%"),
    ("CCC(=C(c1ccc(OC(C)=O)cc1)c1ccc(OC(C)=O)cc1)c1ccc(OC(C)=O)cc1", "Estrogen receptor (Bos taurus) (UniProt Q9XSB5+P49884)", "RBA", "4.2%"),
    ("CC/C(=C(\\c1ccccc1)c1ccc(OC(C)=O)cc1)c1ccccc1", "Estrogen receptor (Bos taurus) (UniProt Q9XSB5+P49884)", "RBA", "2%"),
    ("CC/C(=C(/c1ccccc1)c1cccc(OC(C)=O)c1)c1cccc(OC(C)=O)c1", "Estrogen receptor (Bos taurus) (UniProt Q9XSB5+P49884)", "RBA", "1.1%"),
]

* * *

Property: Tumor size; scope: individual molecules
test system: Mus musculus; experiment: Anti-neoplastic effect in estrogen and progesterone receptor positive hormone-dependent postmenopausal human mammary carcinoma bearing mice at 3 mg/kg/day; format: functional

# Test Smiles, Tumor size
records = [
    ("CCC(=C(c1cccc(OC(C)=O)c1)c1cccc(OC(C)=O)c1)c1ccccc1", 2.4),
    ("CCC(=C(c1ccc(OC(C)=O)cc1)c1ccc(OC(C)=O)cc1)c1ccccc1", 0.81),
    ("CC/C(=C(/c1ccccc1)c1ccc(OC(C)=O)cc1)c1ccc(OC(C)=O)cc1", 0.83),
    ("CC/C(=C(\\c1ccccc1)c1cccc(OC(C)=O)c1)c1cccc(OC(C)=O)c1", 2.36),
    ("CC/C(=C(\\c1ccccc1)c1ccc(OC(C)=O)cc1)c1ccc(OC(C)=O)cc1", 1.39),
    ("CC/C(=C(/c1ccccc1)c1cccc(OC(C)=O)c1)c1cccc(OC(C)=O)c1", 1.35),
]

* * *

molecular target: Estrogen receptor (Bos taurus) (UniProt Q9XSB5+P49884); assay: Binding affinity against Estrogen receptor in calf-uterine cytosol relative to 17-beta-estradiol using [3H]estradiol.; type: protein assay
// classify(record): look up RBA in ranges bin 1 (below 1%), bin 2 (1% to below 2%), bin 3 (2% or more)

# Test Smiles, Class Label
records = [
    ("CC/C(=C(/c1ccc(OC(C)=O)cc1)c1cccc(OC(C)=O)c1)c1cccc(OC(C)=O)c1", "bin 2"),
    ("CC/C(=C(/c1ccccc1)c1ccc(OC(C)=O)cc1)c1ccccc1", "bin 3"),
    ("CCC(=C(c1ccccc1)c1ccccc1)c1cccc(OC(C)=O)c1", "bin 2"),
    ("CCC(=C(c1ccc(OC(C)=O)cc1)c1ccc(OC(C)=O)cc1)c1ccccc1", "bin 3"),
    ("CCC(=C(c1cccc(OC(C)=O)c1)c1cccc(OC(C)=O)c1)c1ccccc1", "bin 2"),
    ("CCC(=C(c1cccc(OC(C)=O)c1)c1cccc(OC(C)=O)c1)c1cccc(OC(C)=O)c1", "bin 2"),
    ("CCC(=C(c1ccccc1)c1ccccc1)c1ccccc1", "bin 1"),
    ("CC/C(=C(\\c1ccccc1)c1cccc(OC(C)=O)c1)c1cccc(OC(C)=O)c1", "bin 1"),
    ("CC/C(=C(\\c1ccccc1)c1cccc(OC(C)=O)c1)c1ccccc1", "bin 1"),
]
